Sourced from patent US20220380347A1

target: COVID-19 (nCoV-2019, SARS-CoV2) Mpro (Severe acute respiratory syndrome coronavirus 2, UniProt P0DTD1); assay: COVID-19 (nCoV-2019, SARS-CoV2) Mpro enzymatic assay; assay type: biochemical; conditions: 25 nM Mpro, 25 μM substrate; read-out: COVID-19 Mpro IC50
endpoint: IC50

Below, 4 compounds whose answers are already recorded.
compound	IC50
N#CN1C[C@@H]2CC[C@@H]2[C@@H]1C(=O)N(c1ccc(S(F)(F)(F)(F)F)cc1)C(C(=O)NC1CCC(F)(F)CC1)c1cncc(F)c1 (single isomer, unassigned) [1097 Isomer 2]	10 to 30 µM
C[C@@]1(O)C[C@H](C(=O)N(c2ccc(S(F)(F)(F)(F)F)cc2)C(C(=O)NC2CCC(F)(F)CC2)c2cccnc2F)N(C#N)C1 (single isomer, unassigned) [1158 Isomer 2]	2 to 10 µM
COC1CN(C#N)C(C)(C(=O)N(c2ccc(S(F)(F)(F)(F)F)cc2)C(C(=O)NC2CCC(F)(F)CC2)c2cncc(F)c2)C1 (stereo not shown) [Compound 1135b]	> 30 µM
CO[C@@H]1C[C@H](C(=O)N(c2ccc(S(F)(F)(F)(F)F)cc2)C(C(=O)N2CCC3(COC3)C2)c2cccnc2)N(C#N)C1 (stereo partly shown) [Compound 1174]	2 to 10 µM

Give IC50 for each of the items listed below.
1. Cc1c[nH]c2cc(N(C(=O)[C@H]3C[C@@H](O)CN3C#N)C(C(=O)NC3CCC(F)(F)CC3)c3cncc(F)c3)ccc12 (single isomer, unassigned) [Compound 747b Isomer 2]
2. COc1ccc(NC(=O)C(c2cccnc2)N(C(=O)[C@H]2C[C@@H](OC)CN2C#N)c2ccc(S(F)(F)(F)(F)F)cc2)cn1 (single isomer, unassigned) [1180 Isomer 1]

A)
1. 2 to 10 µM
2. 2 to 10 µM
